assayed_target: HTRA2, O43464
Sequence (O43464 355-458): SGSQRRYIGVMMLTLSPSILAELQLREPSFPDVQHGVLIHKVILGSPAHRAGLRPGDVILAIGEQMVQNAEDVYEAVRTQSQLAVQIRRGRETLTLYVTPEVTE
measurement_description: holdup assay
Set-up: key: below the threshold = too weak to quantify, mostly under pKd 3.1 to 4
protocol_conditions: plain residues with an end cap or a label only (N-terminal biotin on a linker: ado-ado)
endpoint_name: pKd

>>> measurement("QSPANIYYKV [EFNB1, P52799]")
4.18
>>> measurement("DDEDRLVIEI [ZNF831, Q5JPB2]")
"below the threshold"
>>> measurement("LSEFKAMDSI [CTNNA1, P35221]")
"below the threshold"
>>> measurement("NLSIEKETKL [ASNSD1, Q9NWL6]")
"below the threshold"
